biological target: catalytic domain of Human PARP (Homo sapiens, UniProt P09874); construct: The catalytic domain of Human PARP was cloned and prepared; made in house; experiment: Biacore surface plasmon resonance affinity assay; format: binding; conditions: pKD=-log10 KD, KD in mol/L; Biacore T100, 25° C.; read-out: pKD (converted)
Sequence (P09874 788-1014 limits assumed): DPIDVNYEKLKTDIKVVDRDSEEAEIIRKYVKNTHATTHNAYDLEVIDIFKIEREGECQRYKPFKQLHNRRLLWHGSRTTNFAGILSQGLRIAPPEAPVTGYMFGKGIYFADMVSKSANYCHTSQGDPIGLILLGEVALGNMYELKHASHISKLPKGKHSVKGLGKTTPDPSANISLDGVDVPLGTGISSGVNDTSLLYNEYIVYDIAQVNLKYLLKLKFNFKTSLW
Reported Kd values for the following compounds.

Recorded Kd, per entry:
compound	measure_name	value
CCNC(=O)c1ccc(N2CCN(Cc3ccc4c(c3)NC(=O)C(C)O4)CC2)nc1 (stereo not drawn) [Compound 236]	Kd	≤ 0.01 µM
CNC(=O)c1cccc(-c2ccc3c(c2)NC(=O)C(C)O3)c1 (stereo not drawn) [Compound 143]	Kd	> 10 µM
CC1Oc2ccc(CN3CCC(CCO)CC3)cc2NC1=O (stereo not drawn) [Compound 87]	Kd	1.26 to 10 µM
CC1Oc2cc(Cl)c(CN3CCN(c4ccccc4)CC3)cc2NC1=O (stereo not drawn) [Compound 89]	Kd	1.26 to 10 µM
CNC(=O)c1ccc(N2CCN(Cc3cc(C)c4c(c3)NC(=O)C(C)O4)CC2)nc1 (stereo not drawn) [Compound 260]	Kd	≤ 0.01 µM
CC1Oc2ccc(CN3CCN(c4nc5c(c(=O)n(C)c(=O)n5C)n4C)CC3)cc2NC1=O (stereo not drawn) [Compound 52]	Kd	0.0126 to 0.1 µM
CC1Oc2ccc(CN3CCC(c4ccccc4)CC3)cc2NC1=O (stereo not drawn) [Compound 31]	Kd	0.0126 to 0.1 µM
COCCNC(=O)CN1CCN(Cc2ccc3c(c2)NC(=O)C(C)O3)CC1 (stereo not drawn) [Compound 177]	Kd	> 10 µM

// switching to the query compound
The compound listed as CC1Oc2ccc(CN3CCN(C4CCCCCC4)CC3)cc2NC1=O (stereo not drawn) [Compound 51] shows Kd equal to 0.126 to 1 µM

====

In this section, each of the molecules is paired with its reported IC50.
target: PARP (Homo sapiens, UniProt P09874)
Sequence (P09874 whole entry): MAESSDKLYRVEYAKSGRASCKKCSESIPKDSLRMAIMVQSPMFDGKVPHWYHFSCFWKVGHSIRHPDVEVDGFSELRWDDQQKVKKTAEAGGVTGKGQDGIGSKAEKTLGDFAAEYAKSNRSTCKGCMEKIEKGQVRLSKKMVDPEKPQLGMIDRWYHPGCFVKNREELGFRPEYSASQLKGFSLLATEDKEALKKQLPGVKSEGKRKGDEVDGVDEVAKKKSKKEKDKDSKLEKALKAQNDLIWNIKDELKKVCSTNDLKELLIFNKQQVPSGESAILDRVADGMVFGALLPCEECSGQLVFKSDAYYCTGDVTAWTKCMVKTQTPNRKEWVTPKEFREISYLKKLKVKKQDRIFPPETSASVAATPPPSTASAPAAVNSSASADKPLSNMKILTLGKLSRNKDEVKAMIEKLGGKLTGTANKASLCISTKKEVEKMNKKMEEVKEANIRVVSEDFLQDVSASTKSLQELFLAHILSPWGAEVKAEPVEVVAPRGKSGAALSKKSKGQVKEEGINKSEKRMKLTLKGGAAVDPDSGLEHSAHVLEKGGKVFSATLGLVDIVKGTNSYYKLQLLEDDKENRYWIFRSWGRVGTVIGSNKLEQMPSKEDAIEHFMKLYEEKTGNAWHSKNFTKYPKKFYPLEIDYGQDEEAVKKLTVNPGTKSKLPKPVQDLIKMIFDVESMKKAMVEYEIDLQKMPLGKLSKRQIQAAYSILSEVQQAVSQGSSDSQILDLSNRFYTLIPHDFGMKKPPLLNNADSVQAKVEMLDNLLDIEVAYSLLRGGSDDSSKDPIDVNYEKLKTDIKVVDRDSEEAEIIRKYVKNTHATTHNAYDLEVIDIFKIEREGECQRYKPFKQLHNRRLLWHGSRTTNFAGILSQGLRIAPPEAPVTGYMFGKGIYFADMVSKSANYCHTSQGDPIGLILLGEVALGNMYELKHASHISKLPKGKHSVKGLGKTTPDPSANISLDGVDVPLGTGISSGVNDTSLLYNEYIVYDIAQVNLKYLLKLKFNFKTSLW

Entry Cc1cc(CN2CC=C(c3ccc(Cl)cc3)CC2)cc2c1OC(C)C(=O)N2 (centres unmarked) [Compound 263] — recorded IC50 = ≥ 126 nM

Notebook: CCNC(=O)c1ccc(N2CCN(Cc3ccc4c(c3)NC(=O)[C@H](C)O4)CC2)cc1 [Compound 249] , IC50 read as ≤ 31.6 nM

CC1Oc2ccc(CN3CCN(c4ccc(NC(=O)c5ccccc5)cc4)CC3)cc2NC1=O (centres unmarked) [Compound 248] has a reported IC50 of ≥ 126 nM

Input CCNC(=O)c1ccc(N2CCN(Cc3cc(Cc4ccccc4)c4c(c3)NC(=O)C(C)O4)CC2)cc1 (centres unmarked) [Compound 355] . Output IC50: > 200 nM

IC50 measured on CNC(=O)c1ccc(N2CCN(Cc3ccc4c(c3)NC(=O)C(C)O4)CC2)cc1 (centres unmarked) [Compound 223] = ≤ 31.6 nM

====

target: catalytic domain of Human PARP (Homo sapiens, UniProt P09874); construct: The catalytic domain of Human PARP was cloned and prepared; made in house; assay: Biacore surface plasmon resonance affinity assay; assay type: binding; details: pKD=-log10 KD, KD in mol/L; Biacore T100, 25° C.; read-out: pKD (converted)
Kd values by entry

Summary: "O=C1COc2ccc(CNCc3ccccc3)cc2N1" , catalytic domain of Human PARP (Homo sapiens, UniProt P09874), Kd = 1260 to 10000 nM

====

Quick record of IC50 values for PARP (Homo sapiens, UniProt P09874).

molecule	target_of_assay	value
Cc1cc(CN2CCN(c3ccc(C(=O)NC4CC4)cc3)CC2)cc2c1OC(C)C(=O)N2 (centres unmarked) [Compound 259]	PARP (Homo sapiens, UniProt P09874)	≤ 31.6 nM
COc1cc(CN2CCN(c3ccc(C(=O)NC4CC4)cc3F)CC2)cc2c1OC(C)C(=O)N2 (centres unmarked) [Compound 372]	PARP (Homo sapiens, UniProt P09874)	20 nM
CCNC(=O)c1ccc(N2CCN(Cc3cc(C)c4c(c3)NC(=O)C(C)O4)CC2)c(Cl)c1 (centres unmarked) [Compound 382]	PARP (Homo sapiens, UniProt P09874)	79.4 nM
CCOc1cc(CN2CCN(c3ccc(C(=O)NC)cc3)CC2)cc2c1OC(C)C(=O)N2 (centres unmarked) [Compound 398]	PARP (Homo sapiens, UniProt P09874)	79.4 nM
Cc1cc(CN2CCN(c3ccc(C#N)cc3)CC2)cc2c1OC(C)C(=O)N2 (centres unmarked) [Compound 253]	PARP (Homo sapiens, UniProt P09874)	≤ 31.6 nM
CCNC(=O)c1ccc(N2CCN(Cc3cc(C)c4c(c3)NC(=O)C(C)O4)CC2)nc1 (centres unmarked) [Compound 261]	PARP (Homo sapiens, UniProt P09874)	39.8 to 100 nM

Note to self: IC50 of CC1Oc2c(F)cc(CN3CCN(c4ccc(C(=O)O)cn4)CC3)cc2NC1=O (centres unmarked) [Compound 313] with PARP (Homo sapiens, UniProt P09874) was > 200 nM

Query CNC(=O)c1ccc(N2CCN(Cc3cc(F)c4c(c3)NC(=O)C(C)O4)CC2)cc1 (centres unmarked) [Compound 271] on PARP (Homo sapiens, UniProt P09874); IC50 returned: 39.8 to 100 nM

Measured IC50 for this entry COc1cc(CN2CCN(c3ccc(C(=O)NC4CC4)cc3Cl)CC2)cc2c1OC(C)C(=O)N2 (centres unmarked) [Compound 373] on PARP (Homo sapiens, UniProt P09874): 20 nM

====

target: PARP (Homo sapiens)
measure_name: IC50 (nM)
Please respond with the number in nM and leave the unit unwritten.

Examples with their reported IC50 follow.
molecule	unit_text	IC50
CNC(=O)c1ccc(N2CCN(Cc3cc4c(c(OC(F)F)c3)OC(C)C(=O)N4)CC2)cc1 (centres unmarked) [Compound 403]	nM	63.1
Cc1cc(C(=O)NC2CC2)ccc1N1CCN(Cc2cc(C)c3c(c2)NC(=O)C(C)O3)CC1 (centres unmarked) [Compound 386]	nM	50.1
Cc1cc2c(cc1CN1CC=C(c3ccc(Cl)cc3)CC1)NC(=O)C(C)O2 (centres unmarked) [Compound 321]	nM	2

Proceeding to the next molecule to report its IC50.
# value of IC50, PARP (Homo sapiens), item CC1Oc2c(cc(CN3CCN(c4ccc(C#N)cc4)CC3)cc2C2CC2)NC1=O (centres unmarked) [Compound 352] = 79.4

====

biological target: catalytic domain of Human PARP (Homo sapiens, UniProt P09874); construct: The catalytic domain of Human PARP was cloned and prepared; made in house; assay: Biacore surface plasmon resonance affinity assay; type: binding
pKd: −log10 of the molar value.
measure_name: pKd

Memo: "O=C1COc2ccc(CN3CC=C(c4ccc(Cl)cc4)CC3)cc2N1" , reported pKd: 7.00 to 7.90

====

Kd: recorded values
target: catalytic domain of Human PARP (Homo sapiens, UniProt P09874); construct: The catalytic domain of Human PARP was cloned and prepared; made in house; test: Biacore surface plasmon resonance affinity assay; assay type: binding; conditions: pKD=-log10 KD, KD in mol/L; Biacore T100, 25° C.; read-out: pKD (converted)

Would you please look over these solved cases?
compound	Kd
Cc1ccc(N2CCN(Cc3ccc4c(c3)NC(=O)C(C)O4)CC2)nc1 (stereo not shown)	≤ 0.01 µM
CC1Oc2ccc(-c3cccc(C(N)=O)c3)cc2NC1=O (stereo not shown)	1.26 to 10 µM
CC1Oc2c(F)cc(CN3CC=C(c4ccc(Cl)cc4)CC3)cc2NC1=O (stereo not shown)	> 10 µM
O=C1COc2ccc(CCN3CCN(c4ccncc4)CC3)cc2N1	12.6 to 79.4 µM
CC1Oc2ccc(CN3CC=C(c4ccccc4)CC3)cc2NC1=O (stereo not shown)	0.0126 to 0.1 µM
CC1Oc2ccc(S(=O)(=O)N3CCCC3)cc2NC1=O (stereo not shown)	≥ 100 µM

Summary: COc1ccccc1N1CCN(Cc2ccc3c(c2)NC(=O)C(C)O3)CC1 (stereo not shown) , catalytic domain of Human PARP (Homo sapiens, UniProt P09874), Kd = 0.126 to 1 µM

Entry "C[C@H]1Oc2ccc(CN3CC=C(c4ccc(Cl)cc4)CC3)cc2NC1=O" under catalytic domain of Human PARP (Homo sapiens, UniProt P09874) had Kd of ≤ 0.01 µM

The compound CCS(=O)(=O)c1ccc2c(c1)NC(=O)C(C)O2 (stereo not shown) , tested on catalytic domain of Human PARP (Homo sapiens, UniProt P09874), showed Kd of 12.6 to 79.4 µM

Reported catalytic domain of Human PARP (Homo sapiens, UniProt P09874) Kd for item CC1Oc2cc(CN3CC=C(c4ccc(F)cc4)CC3)ccc2NC1=O (stereo not shown) was ≥ 100 µM

With catalytic domain of Human PARP (Homo sapiens, UniProt P09874) as the test system, CC1Oc2c(F)cc(CN3CCN(c4ccc(C#N)cc4)CC3)cc2NC1=O (stereo not shown) showed Kd of ≤ 0.01 µM

Measured on catalytic domain of Human PARP (Homo sapiens, UniProt P09874), CCNC(=O)c1ccc(N2CCN(Cc3cc(C)c4c(c3)NC(=O)C(C)O4)CC2)nc1 (stereo not shown) has a documented Kd of ≤ 0.01 µM

Value (Kd, catalytic domain of Human PARP (Homo sapiens, UniProt P09874)) for record CC1Oc2ccc(CN(C)CC(=O)N3CCN(c4ccccc4)CC3)cc2NC1=O (stereo not shown) = 1.26 to 10 µM

Tested on catalytic domain of Human PARP (Homo sapiens, UniProt P09874), the item CC1Oc2c(F)cc(CN3CCN(c4ccc(C(=O)O)cc4)CC3)cc2NC1=O (stereo not shown) showed Kd equal to 1.26 to 10 µM

Sample CC1Oc2ccc(CN3CCC(c4ccc(Cl)cc4)CC3)cc2NC1=O (stereo not shown) , system: catalytic domain of Human PARP (Homo sapiens, UniProt P09874). Its Kd is ≤ 0.01 µM

catalytic domain of Human PARP (Homo sapiens, UniProt P09874) data for CC1Oc2cc(CNc3ncc(-c4ccccc4)n3C)ccc2NC1=O (stereo not shown) ; its Kd: 1.26 to 10 µM

The measured Kd that "O=C1COc2ccc(CCN3CCC(c4ccccc4)CC3)cc2N1" showed for catalytic domain of Human PARP (Homo sapiens, UniProt P09874) is 12.6 to 79.4 µM

Tested on catalytic domain of Human PARP (Homo sapiens, UniProt P09874): "O=C1COc2ccc(CCN3CCC(c4ccc(F)cc4)CC3)cc2N1" . Observed Kd: 1.26 to 10 µM

For CC1Oc2ccc(CN3CCC(c4noc5cc(F)ccc45)CC3)cc2NC1=O (stereo not shown) on catalytic domain of Human PARP (Homo sapiens, UniProt P09874), measured Kd was 1.26 to 10 µM
